- Tested on: SK-OV-3
- experiment_summary: Cell growth inhibition, WST assay, SK-OV-3
- Assay type: cell-based
- settings: Homo sapiens
The entries below are paired with their reported IC50.

Below, 5 molecules whose answers are already recorded.
CN[C@@H](C)C(=O)N[C@H]1CCCC[C@H]2CC[C@@H](C(=O)N[C@@H](c3ccc(F)cc3)c3cn(CCCCc4ccc(CCCCn5cc([C@@H](NC(=O)[C@@H]6CC[C@@H]7CCCC[C@H](NC(=O)[C@H](C)NC)C(=O)N76)c6ccc(F)cc6)nn5)cc4)nn3)N2C1=O :: < 10 nM
CN[C@@H](C)C(=O)N[C@H]1CCCC[C@H]2CC[C@@H](C(=O)N[C@@H](c3ccccc3)c3ccc(CCCn4cc(COCc5cn(CCCc6ccc([C@@H](NC(=O)[C@@H]7CC[C@@H]8CCCC[C@H](NC(=O)[C@H](C)NC)C(=O)N87)c7ccccc7)cc6)nn5)nn4)cc3)N2C1=O :: < 100 nM
CN[C@@H](C)C(=O)N[C@H]1CCCC[C@H]2CC[C@@H](C(=O)N[C@@H](c3ccccc3)c3cn(CCOCCOCCn4cc([C@@H](NC(=O)[C@@H]5CC[C@@H]6CCCC[C@H](NC(=O)[C@H](C)NC)C(=O)N65)c5ccccc5)nn4)nn3)N2C1=O :: < 1000 nM
CN[C@@H](C)C(=O)N[C@H]1CCCC[C@H]2CC[C@@H](C(=O)N[C@@H](c3ccccc3)c3ccc(CCCNC(=O)NCCCc4ccc([C@@H](NC(=O)[C@@H]5CC[C@@H]6CCCC[C@H](NC(=O)[C@@H](C)NC)C(=O)N65)c5ccccc5)cc4)cc3)N2C1=O :: < 100 nM
CN[C@@H](C)C(=O)N[C@H]1CCCC[C@H]2CC[C@@H](C(=O)N[C@@H](c3ccccc3)c3ccc(CCCCNC(=O)NCCCCc4ccc([C@@H](NC(=O)[C@@H]5CC[C@@H]6CCCC[C@H](NC(=O)[C@H](C)NC)C(=O)N65)c5ccccc5)cc4)cc3)N2C1=O :: < 10 nM

Lab book: IC50 of "CN[C@@H](C)C(=O)N[C@H]1CCCC[C@H]2CC[C@@H](C(=O)N[C@@H](c3ccccc3)c3cn(CCCCCOCCCCn4cc([C@@H](NC(=O)[C@@H]5CC[C@@H]6CCCC[C@H](NC(=O)[C@H](C)NC)C(=O)N65)c5ccccc5)nn4)nn3)N2C1=O" noted as < 10 nM

Documented IC50 of "CN[C@@H](C)C(=O)N[C@H]1CCCC[C@H]2CC[C@@H](C(=O)N[C@@H](c3ccccc3)c3cn(CCOCCn4cc([C@@H](NC(=O)[C@@H]5CC[C@@H]6CCCC[C@H](NC(=O)[C@H](C)NC)C(=O)N65)c5ccccc5)nn4)nn3)N2C1=O" : < 1000 nM

IC50 in this record for CN[C@@H](C)C(=O)N[C@H]1CN(C(=O)CCCCCCCCC(=O)N2CC[C@H]3CCC(C(=O)NC(c4ccccc4)c4ccccc4)N3C(=O)[C@@H](NC(=O)[C@H](C)NC)C2)CC[C@H]2CCC(C(=O)NC(c3ccccc3)c3ccccc3)N2C1=O (stereo partly drawn) : < 10 nM

The molecule listed as "CN[C@@H](C)C(=O)N[C@H]1CCCC[C@H]2CC[C@@H](C(=O)N[C@@H](c3ccccc3)c3cn(CCCCn4cc([C@@H](NC(=O)[C@@H]5CC[C@@H]6CCCC[C@H](NC(=O)[C@H](C)NC)C(=O)N65)c5ccccc5)nn4)nn3)N2C1=O" has a reported IC50 of < 1000 nM

Just so you know, measured IC50 for "CN[C@@H](C)C(=O)N[C@H]1CCCC[C@H]2CC[C@@H](C(=O)N[C@H](c3ccccc3)c3cn(CCCCc4ccc(CCCCn5cc([C@H](NC(=O)[C@@H]6CC[C@@H]7CCCC[C@H](NC(=O)[C@H](C)NC)C(=O)N76)c6ccccc6)nn5)cc4)nn3)N2C1=O" came out at < 1000 nM

Given item "CN[C@@H](C)C(=O)N[C@H]1CCCC[C@H]2CC[C@@H](C(=O)N[C@@H](c3ccccc3)c3cn(CCCCCCCCn4cc([C@@H](NC(=O)[C@@H]5CC[C@@H]6CCCC[C@H](NC(=O)[C@H](C)NC)C(=O)N65)c5ccccc5)nn4)nn3)N2C1=O" , the value recorded as its IC50 is < 10 nM

====

- System: SK-OV-3
- experiment_summary: Cell growth inhibition, WST assay, SK-OV-3
- Format: cell-based
- settings: Homo sapiens
Recorded IC50 values for a group of compounds are listed next.

Example compounds with recorded IC50:
C[C@H](NCCO)C(=O)N[C@H]1CCCC[C@H]2CC[C@@H](C(=O)N[C@@H](c3ccc(F)cc3)c3cn(CCCCc4ccc(CCCCn5cc([C@@H](NC(=O)[C@@H]6CC[C@@H]7CCCC[C@H](NC(=O)[C@H](C)NCCO)C(=O)N76)c6ccc(F)cc6)nn5)cc4)nn3)N2C1=O :: < 100 nM
CN[C@@H](C)C(=O)N[C@H]1CCCC[C@H]2CC[C@@H](C(=O)N[C@@H](c3ccccc3)c3ccc(CCCNC(=S)NCCCc4ccc([C@@H](NC(=O)[C@@H]5CC[C@@H]6CCCC[C@H](NC(=O)[C@@H](C)NC)C(=O)N65)c5ccccc5)cc4)cc3)N2C1=O :: < 100 nM

Switching to the query record.
IC50 measured on "CN[C@@H](C)C(=O)N[C@H]1CCCC[C@H]2CC[C@@H](C(=O)N[C@@H](c3ccccc3)c3cn(CCCCc4ccc(CCCCn5cc([C@@H](NC(=O)[C@@H]6CC[C@@H]7CCCC[C@H](NC(=O)[C@H](C)NC)C(=O)N76)c6ccccc6)nn5)cc4)nn3)N2C1=O" = < 10 nM

====

Reported IC50 values are given for each entry in this list.
- System: SK-OV-3
- experiment_summary: Cell growth inhibition, WST assay, SK-OV-3
- Assay type: cell-based
- settings: Homo sapiens

CN[C@@H](C)C(=O)N[C@H]1CN(C(=O)CCCCCCC(=O)N2CC[C@H]3CCC(C(=O)NC(c4ccccc4)c4ccccc4)N3C(=O)[C@@H](NC(=O)[C@H](C)NC)C2)CC[C@H]2CCC(C(=O)NC(c3ccccc3)c3ccccc3)N2C1=O (stereo partly shown) [YP-385] :: < 10 nM
C[C@H](NCCO)C(=O)N[C@H]1CCCC[C@H]2CC[C@@H](C(=O)N[C@@H](c3ccccc3)c3cn(CCCCc4ccc(CCCCn5cc([C@@H](NC(=O)[C@@H]6CC[C@@H]7CCCC[C@H](NC(=O)[C@H](C)NCCO)C(=O)N76)c6ccccc6)nn5)cc4)nn3)N2C1=O [SH-180] :: < 1000 nM
CN[C@@H](C)C(=O)N[C@H]1CCCC[C@H]2CCC(C(=O)N[C@H](COCCCCCCCCCCCCOC[C@@H](NC(=O)[C@@H]3CC[C@@H]4CCCC[C@H](NC(=O)[C@H](C)NC)C(=O)N43)c3ccccc3)c3ccccc3)N2C1=O (stereo partly shown) [SH-202] :: < 10 nM

Please turn your attention to the following entry.
Simply: CN[C@@H](C)C(=O)N[C@H]1CN(C(=O)CCCCCCCCCCC(=O)N2CC[C@H]3CC[C@@H](C(=O)NC(c4ccccc4)c4ccccc4)N3C(=O)[C@@H](NC(=O)[C@H](C)NC)C2)CC[C@H]2CC[C@@H](C(=O)NC(c3ccccc3)c3ccccc3)N2C1=O [YP-383] , SK-OV-3, IC50 = < 10 nM
